Reported values of Ki for individual entries
- Assayed Target: hCRTH2 (Homo sapiens, UniProt Q9Y5Y4)
- Construct: expressed in transfected cells; host or cells: HEK (human embryonic kidney) cells expressing hCRTH2; membrane preparation
- Sequence (Q9Y5Y4 whole entry): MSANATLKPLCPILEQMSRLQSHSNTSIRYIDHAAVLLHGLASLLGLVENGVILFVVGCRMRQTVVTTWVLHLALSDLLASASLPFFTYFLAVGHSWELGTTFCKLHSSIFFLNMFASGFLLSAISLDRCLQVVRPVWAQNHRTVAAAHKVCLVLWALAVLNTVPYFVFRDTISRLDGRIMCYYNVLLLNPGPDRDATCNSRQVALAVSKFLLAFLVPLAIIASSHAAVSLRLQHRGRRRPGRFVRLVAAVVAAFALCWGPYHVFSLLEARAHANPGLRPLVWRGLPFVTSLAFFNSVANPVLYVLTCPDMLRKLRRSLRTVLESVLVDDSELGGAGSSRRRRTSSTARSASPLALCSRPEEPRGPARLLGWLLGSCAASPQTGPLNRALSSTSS
- Test Details: Radioligand binding assay ([3H]PGD2 competition, HEK-hCRTH2 membranes)
- Conditions Used: [3H]PGD2 competition, Table B

Some entries whose results are on file:
[[record]]
compound = "C[C@H](NC(=O)c1ccc2nc(-c3ccc(Cl)cc3)c(CCCCC(=O)O)nc2c1)c1cc(F)cc(F)c1 [compound 413]"
property_measured = "Ki"
result = "0.1 to 2 nM"

[[record]]
compound = "C[C@@H](CCc1nc2cc(C(=O)N3CCN(c4ccccc4)CC3)ccc2nc1-c1ccccc1)CC(=O)O [compound 289]"
property_measured = "Ki"
result = "20.1 to 200 nM"

[[record]]
compound = "COc1ccc(C2CN(C(=O)c3ccc4nc(-c5ccc(F)cc5)c(CCCCC(=O)O)nc4c3)C2)cc1 [compound 372]"
property_measured = "Ki"
result = "2.1 to 20 nM"

[[record]]
compound = "C[C@@H]1CN(c2ccccc2)CCN1C(=O)c1ccc2nc(-c3ccc(F)cc3)c(CCCCC(=O)O)nc2c1 [compound 499]"
property_measured = "Ki"
result = "2.1 to 20 nM"

[[record]]
compound = "COc1ccccc1C1CCN(C(=O)c2ccc3nc(-c4ccc(Cl)cc4)c(CCCCC(=O)O)nc3c2)CC1 [compound 632]"
property_measured = "Ki"
result = "0.1 to 2 nM"


Could you tell me which Ki is on file for O=C(O)CCCCc1nc2cc(C(=O)N3CCN(c4nccs4)CC3)ccc2nc1-c1ccc(Cl)cc1 [compound 601] ?
2.1 to 20 nM

Could you tell me which Ki is on file for CC(CCCc1nc2cc(C(=O)N[C@@H]3CCc4cc(F)ccc43)ccc2nc1-c1ccc(F)cc1)C(=O)O (some centres unmarked) [compound 457] ?
0.1 to 2 nM

Could you tell me which Ki is on file for C[C@H](CCc1nc2cc(C(=O)N3CC(c4cccc(F)c4)C3)ccc2nc1-c1ccccc1)CC(=O)O [compound 281] ?
20.1 to 200 nM

Could you tell me which Ki is on file for O=C(O)CCCCc1nc2cc(C(=O)N[C@H]3CCOc4ccc(F)cc43)ccc2nc1-c1ccc(Cl)cc1 [compound 534] ?
2.1 to 20 nM

Could you tell me which Ki is on file for C[C@@H](CCCc1nc2cc(C(=O)N[C@@H]3CCc4cc(F)ccc43)ccc2nc1-c1ccc(F)cc1)C(=O)O [compound 523] ?
2.1 to 20 nM

Could you tell me which Ki is on file for CC1(C)c2ccc(F)cc2CN1C(=O)c1ccc2nc(-c3ccc(Cl)cc3)c(CCCCC(=O)O)nc2c1 [compound 558] ?
2.1 to 20 nM

Could you tell me which Ki is on file for O=C(O)CCCCc1nc2cc(C(=O)N[C@@H]3CCOc4cc(F)c(F)cc43)ccc2nc1-c1ccc(Cl)cc1 [compound 533] ?
2.1 to 20 nM

Could you tell me which Ki is on file for C[C@@H](NC(=O)c1ccc2nc(-c3ccc(Cl)cc3Cl)c(CCCCC(=O)O)nc2c1)c1ccc(F)cc1 [compound 416] ?
2.1 to 20 nM

Could you tell me which Ki is on file for O=C(O)CCCCc1nc2cc(C(=O)N[C@@H]3CCOc4ccccc43)ccc2nc1-c1ccc(F)cc1 [compound 491] ?
0.1 to 2 nM

###

- Assayed Target: hCRTH2 (Homo sapiens, UniProt Q9Y5Y4)
- Construct: expressed in transfected cells; host or cells: HEK (human embryonic kidney) cells expressing hCRTH2; membrane preparation
- Test Details: Radioligand binding assay ([3H]PGD2 competition, HEK-hCRTH2 membranes)
- Conditions Used: [3H]PGD2 competition, Table B
Property Measured: Ki

Some entries whose results are on file:
[[record]]
compound = "O=C(O)CCCCc1nc2cc(C(=O)N3CCN(c4ccc(C(F)(F)F)cn4)CC3)ccc2nc1-c1ccc(Cl)cc1"
assayed_target = "hCRTH2 (Homo sapiens, UniProt Q9Y5Y4)"
result = "0.1 to 2 nM"

[[record]]
compound = "N#Cc1ccc(CNC(=O)c2ccc3nc(-c4ccc(Cl)cc4)c(CCc4cc(F)cc(CC(=O)O)c4)nc3c2)cc1"
assayed_target = "hCRTH2 (Homo sapiens, UniProt Q9Y5Y4)"
result = "2.1 to 20 nM"

[[record]]
compound = "O=C(O)CCCCc1nc2cc(C(=O)N3CCN(c4c(Cl)cncc4Cl)CC3)ccc2nc1-c1ccccc1"
assayed_target = "hCRTH2 (Homo sapiens, UniProt Q9Y5Y4)"
result = "2.1 to 20 nM"


Could you tell me which Ki is on file for C[C@@H](NC(=O)c1ccc2nc(-c3ccc(F)c(F)c3)c(CCCCC(=O)O)nc2c1)c1ccc(F)cc1 ?
20.1 to 200 nM

Could you tell me which Ki is on file for O=C(O)CCCCc1nc2cc(C(=O)N3CCC(N4CCCC4)CC3)ccc2nc1-c1ccc(Cl)cc1 ?
20.1 to 200 nM

Could you tell me which Ki is on file for O=C(O)CCCCc1nc2cc(C(=O)N[C@H]3COc4cc(F)ccc43)ccc2nc1-c1ccc(Cl)cc1 ?
2.1 to 20 nM

Could you tell me which Ki is on file for O=C(O)CCCCc1nc2cc(C(=O)N[C@@H]3CCc4cc(F)ccc43)ccc2nc1-c1ccc(Cl)cc1 ?
0.1 to 2 nM

Could you tell me which Ki is on file for Cc1noc(C2CCCCN2C(=O)c2ccc3nc(-c4ccc(Cl)cc4)c(CCCCC(=O)O)nc3c2)n1 (centres unmarked) ?
20.1 to 200 nM

###

- Assayed Target: hCRTH2 (Homo sapiens, UniProt Q9Y5Y4)
- Construct: expressed in transfected cells; host or cells: HEK (human embryonic kidney) cells expressing hCRTH2; membrane preparation
- Test Details: Radioligand binding assay ([3H]PGD2 competition, HEK-hCRTH2 membranes)
- Conditions Used: [3H]PGD2 competition, Table B
pKi: −log10 of the molar value.
Property Measured: pKi

[[record]]
compound = "C[C@@H](CCCc1nc2cc(C(=O)N[C@@H]3CCCc4cc(F)ccc43)ccc2nc1-c1ccc(F)cc1)C(=O)O"
result = "7.70 to 8.68"

[[record]]
compound = "O=C(O)CCCCc1nc2cc(C(=O)N3CCC4(CCCc5ccccc54)C3)ccc2nc1-c1ccc(Cl)cc1 (stereo not shown) [compound 583]"
result = "8.70 to 10.00"

[[record]]
compound = "C[C@H](NC(=O)c1ccc2nc(-c3ccc(Cl)cc3)c(CCCCC(=O)O)nc2c1)c1cccc2ncccc12"
result = "7.70 to 8.68"


Could you tell me which pKi is on file for N#Cc1ccccc1N1CCN(C(=O)c2ccc3nc(-c4ccc(F)cc4)c(CCCCC(=O)O)nc3c2)CC1 ?
7.70 to 8.68

Could you tell me which pKi is on file for O=C(O)CCCCc1nc2cc(C(=O)N3C[C@@H]4C[C@H]3CN4Cc3ccccc3)ccc2nc1-c1ccc(Cl)cc1 ?
7.70 to 8.68

Could you tell me which pKi is on file for C[C@H]1CN(c2ccc(Cl)cc2)CCN1C(=O)c1ccc2nc(-c3ccccc3)c(CCCCC(=O)O)nc2c1 ?
7.70 to 8.68

Could you tell me which pKi is on file for C[C@@H](NC(=O)c1ccc2nc(-c3ccc(F)cc3)c(CCCC(F)(F)C(=O)O)nc2c1)c1ccc(F)cc1 ?
6.70 to 7.70

Could you tell me which pKi is on file for C[C@H]1CN(c2ccccc2)CCN1C(=O)c1ccc2nc(-c3ccc(Cl)cc3)c(CCCCC(=O)O)nc2c1 ?
7.70 to 8.68

Could you tell me which pKi is on file for C[C@H](CCc1nc2cc(C(=O)N[C@@H]3CCCc4ccccc43)ccc2nc1-c1ccccc1)CC(=O)O ?
7.70 to 8.68

Could you tell me which pKi is on file for O=C(O)CCCCc1nc2cc(C(=O)NC3CCCOc4ccccc43)ccc2nc1-c1ccccc1 (stereo not shown) ?
7.70 to 8.68

###

- Assayed Target: hCRTH2 (Homo sapiens)
- Construct: expressed in transfected cells; host or cells: HEK (human embryonic kidney) cells expressing hCRTH2; membrane preparation
- Test Details: Radioligand binding assay ([3H]PGD2 competition, HEK-hCRTH2 membranes)
- Conditions Used: [3H]PGD2 binding, rated A-E (Table A)
- Description: Biological Assays Radioligand Binding Assay. Radioligand binding assays were performed at room temperature in 50 mM Tris-HCl pH 7.4, 1 mM EDTA containing 2 mM MnCl2 and 3.0 nM [^3H]PGD2 (New England Nuclear, Boston, Mass.) (171 Ci mmol^−1), in a final volume of 0.2 mL. […] Total and non-specific binding were determined in the absence and the presence of 10 μM PGD2, respectively. […] The radioactivity was measured with Betaplate model 1205 (Wallac).
pKi: −log10 of the molar value.
Reported values of pKi for individual entries

Some entries whose results are on file:
[[record]]
compound = "C[C@@H](NC(=O)c1ccc2nc(-c3ccccc3)c(CC[C@@H]3C[C@H]3C(=O)O)nc2c1)c1ccc(Cl)cc1"
property_measured = "pKi"
result = "7.70 to 8.68"

[[record]]
compound = "N#Cc1ccc(C2CN(C(=O)c3ccc4nc(-c5ccc(F)cc5)c(CCCCC(=O)O)nc4c3)C2)cc1"
property_measured = "pKi"
result = "8.70 to 10.00"

[[record]]
compound = "O=C(O)CCCCc1nc2cc(C(=O)N[C@@H]3CCc4ccccc43)ccc2nc1-c1ccc(Cl)cc1 [16Ao]"
property_measured = "pKi"
result = "8.70 to 10.00"

[[record]]
compound = "O=C(O)CCCCc1nc2cc(C(=O)N3CCC4(CC3)C(=O)NCN4c3ccccc3)ccc2nc1-c1ccccc1"
property_measured = "pKi"
result = "7.70 to 8.68"

[[record]]
compound = "O=C(O)C1CC1CCc1nc2cc(C(=O)N3CCC(c4ccccc4)CC3)ccc2nc1-c1ccccc1 (single isomer, unassigned) [compound 20]"
property_measured = "pKi"
result = "6.70 to 7.70"

[[record]]
compound = "C[C@H](NC(=O)c1ccc2nc(-c3ccc(Cl)cc3)c(CCCCC(=O)O)nc2c1)c1ccccc1 [16AM]"
property_measured = "pKi"
result = "8.70 to 10.00"

[[record]]
compound = "O=C(O)CCCCc1nc2cc(C(=O)N3CCC(c4ccccc4)C3)ccc2nc1-c1ccc(Cl)cc1 (centres unmarked) [16H]"
property_measured = "pKi"
result = "8.70 to 10.00"

[[record]]
compound = "C[C@@H](NC(=O)c1ccc2nc(-c3ccccc3)c(CCCC(=O)O)nc2c1)c1ccc(F)cc1"
property_measured = "pKi"
result = "5.64 to 6.15"

[[record]]
compound = "O=C(O)CCCCc1nc2cc(C(=O)C3CC3)ccc2nc1-c1ccc(C(F)(F)F)cc1"
property_measured = "pKi"
result = "8.70 to 10.00"

[[record]]
compound = "CC(CCc1nc2cc(C(=O)N[C@@H](c3ccccc3)C(F)(F)F)ccc2nc1-c1ccc(C(F)(F)F)cc1)CC(=O)O (some centres unmarked) [17S]"
property_measured = "pKi"
result = "7.70 to 8.68"


Could you tell me which pKi is on file for O=C(O)CCCCc1nc2cc(C(=O)N3CCC(c4ccc(F)cc4)C3)ccc2nc1-c1ccccc1 (centres unmarked) [15S] ?
8.70 to 10.00

Could you tell me which pKi is on file for O=C(O)Cc1cccc(CCc2nc3cc(C(=O)N4CCC(c5ccccc5)CC4)ccc3nc2-c2ccc(Cl)cc2)c1 ?
7.70 to 8.68

Could you tell me which pKi is on file for O=C(O)CCCCc1nc2cc(C(=O)N[C@H]3CCCc4ccccc43)ccc2nc1-c1ccc(Cl)cc1 [16AN] ?
8.70 to 10.00

Could you tell me which pKi is on file for O=C(O)CCCCc1nc2cc(C(=O)N[C@@H]3CCCc4cc(Cl)ccc43)ccc2nc1-c1ccccc1 ?
8.70 to 10.00

Could you tell me which pKi is on file for O=C(O)Cc1cccc(CCc2nc3cc(C(=O)N4CCN(c5ccccc5)CC4)ccc3nc2-c2ccc(F)cc2)c1 ?
7.70 to 8.68

Could you tell me which pKi is on file for O=C(O)CCCCc1nc2cc(C(=O)N[C@@H](c3ccccc3)C(F)(F)F)ccc2nc1-c1ccc(F)cc1 ?
7.70 to 8.68

Could you tell me which pKi is on file for O=C(O)CCCCc1nc2cc(C(=O)N3CC(c4cccc(F)c4)C3)ccc2nc1-c1ccccc1 ?
8.70 to 10.00
